These data points were gathered from patent US20170007610A1.

- ASSAY SYSTEM: kappa opioid receptor (Mus musculus, UniProt P33534)
- Construct: from tissue; host or cells: mouse vas deferens (male Swiss Albino mice)
- Sequence (P33534 whole entry): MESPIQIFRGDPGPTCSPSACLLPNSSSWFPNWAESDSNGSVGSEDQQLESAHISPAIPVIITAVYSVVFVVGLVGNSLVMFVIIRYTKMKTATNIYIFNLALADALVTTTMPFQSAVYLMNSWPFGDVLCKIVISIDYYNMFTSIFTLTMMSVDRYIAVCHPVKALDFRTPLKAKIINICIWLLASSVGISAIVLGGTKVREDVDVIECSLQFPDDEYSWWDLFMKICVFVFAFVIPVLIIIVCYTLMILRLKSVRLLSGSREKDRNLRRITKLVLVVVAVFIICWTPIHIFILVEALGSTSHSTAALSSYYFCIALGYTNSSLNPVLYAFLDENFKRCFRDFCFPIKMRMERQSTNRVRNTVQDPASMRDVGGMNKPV
- PROCEDURE TEXT: Ex-vivo KOR agonistic activity, electrically stimulated mouse vas deferens (MVD) model
TEST READOUT: pIC50
One number for each entry, as −log10 of the molar value.

> print(dat)
                                   compound  data.value
1  CN(C(=O)COc1ccc(NS(=O)(=O)N(C)C)c2ncccc12)[C@H](CN1CC[C@H](O)C1)c1ccccc1 [Compound 24]        8.30

Give measured pIC50 for every item shown.
1. CN(C(=O)COc1ccc2ccoc2c1)[C@H](CN1CC[C@H](O)C1)c1ccccc1 [Compound 17]
2. CN(C(=O)COc1ccc2c(c1)CCCN2S(C)(=O)=O)[C@H](CN1CC[C@H](O)C1)c1ccccc1 [Compound 20]
3. Cc1cccc([C@@H](CN2CC[C@H](O)C2)N(C)C(=O)COc2ccc(NS(C)(=O)=O)c3ncccc23)c1 [Compound 54]
4. CN(C(=O)COc1ncc2ccc(Br)cc2n1)[C@H](CN1CC[C@H](O)C1)c1ccccc1 [Compound 28]
5. CN(C(=O)COc1cccc2c1N(S(C)(=O)=O)CCC2)[C@H](CN1CC[C@H](O)C1)c1ccccc1 [Compound 12]

1: 8.15; 2: 5.76; 3: 7.85; 4: 5.83; 5: 8.70

Give measured pIC50 for every item shown.
1. CC(=O)Nc1cccc([C@@H](CN2CC[C@H](O)C2)N(C)C(=O)COc2ccc(NS(C)(=O)=O)c3ncccc23)c1 [Compound 45]
2. CN(C(=O)COc1ccc(NS(C)(=O)=O)c2ncccc12)[C@H](CN1CC[C@H](O)C1)c1cccc(N)c1 [Compound 43]
3. CN(C(=O)COc1ccc2cc(NS(C)(=O)=O)ccc2n1)[C@H](CN1CC[C@H](O)C1)c1ccccc1 [Compound 2]
4. CN(C(=O)COc1ccc(NC(=N)N)c2ncccc12)[C@H](CN1CC[C@H](O)C1)c1ccccc1 [Compound 40]

[7.85, 8.80, 5.59, 8.96]

Give measured pIC50 for every item shown.
1. CN(C(=O)COc1ccc(NS(=O)(=O)N2CCCC2)c2ncccc12)[C@H](CN1CC[C@H](O)C1)c1ccccc1 [Compound 38]
2. CN(C(=O)COc1ccc(NS(C)(=O)=O)c2ncccc12)[C@H](CN1CC[C@H](O)C1)c1ccccc1 [Compound 5]
3. CN(C(=O)COc1ccc(NS(C)(=O)=O)c2ncccc12)[C@H](CN1CC[C@H](O)C1)c1cccc(C(F)(F)F)c1 [Compound 53]
4. CN1CCCc2cccc(OCC(=O)N(C)[C@H](CN3CC[C@H](O)C3)c3ccccc3)c21 [Compound 13]
5. CNS(=O)(=O)Nc1ccc(OCC(=O)N(C)[C@H](CN2CC[C@H](O)C2)c2ccccc2)c2cccnc12 [Compound 23]
6. CN(C(=O)COc1ncc(NS(C)(=O)=O)c2ccccc12)[C@H](CN1CC[C@H](O)C1)c1ccccc1 [Compound 10]
7. CN(C(=O)COc1nccc2ccccc12)[C@H](CN1CC[C@H](O)C1)c1ccccc1 [Compound 9]
8. CN(C(=O)COc1ccc([N+](=O)[O-])c2c1NCCC2)[C@H](CN1CC[C@H](O)C1)c1ccccc1 [Compound 8]

1: 8.13; 2: 8.25; 3: 7.14; 4: 6.90; 5: 8.08; 6: 7.27; 7: 7.89; 8: 8.21

Give measured pIC50 for every item shown.
1. CN(C(=O)COc1ccc2ccoc2c1)[C@H](CN1CC[C@H](O)C1)c1cccc([N+](=O)[O-])c1 [Compound 55]
2. CN(C(=O)COc1ccc(NC(=O)CO)c2ncccc12)[C@H](CN1CC[C@H](O)C1)c1ccccc1 [Compound 34]
3. CN(C(=O)COc1ccc2occc2c1)[C@H](CN1CC[C@H](O)C1)c1ccccc1 [Compound 16]
4. CN(C(=O)COc1cc(NS(C)(=O)=O)c2ccccc2n1)[C@H](CN1CC[C@H](O)C1)c1ccccc1 [Compound 3]
5. CN(C(=O)COc1ccc2c(c1)CCCN2)[C@H](CN1CC[C@H](O)C1)c1ccccc1 [Compound 21]
6. CC(=O)N1CCCc2c(OCC(=O)N(C)[C@H](CN3CC[C@H](O)C3)c3ccccc3)ccc(NS(C)(=O)=O)c21 [Compound 31]

6.51
6.59
8.40
6.38
6.24
6.93

Give measured pIC50 for every item shown.
1. CN(C(=O)COc1ccc(NS(C)(=O)=O)c2ncccc12)[C@H](CN1CC[C@H](O)C1)c1cccc(F)c1 [Compound 52]
2. COC(=O)Nc1cccc([C@@H](CN2CC[C@H](O)C2)N(C)C(=O)COc2ccc3c(c2)OCO3)c1 [Compound 58]
3. CN(C(=O)COc1ccc2c(c1)OCO2)[C@H](CN1CC[C@H](O)C1)c1cccc(NS(C)(=O)=O)c1 [Compound 57]
4. CN(C(=O)COc1ccc(NS(=O)(=O)CCl)c2ncccc12)[C@H](CN1CC[C@H](O)C1)c1ccccc1 [Compound 26]

7.68
8.01
7.57
7.54

Give measured pIC50 for every item shown.
1. CN(C(=O)COc1ccc2c(c1)OCC2)[C@H](CN1CC[C@H](O)C1)c1ccccc1 [Compound 18]
2. CN(C(=O)COc1ccc(NC(=O)CN)c2ncccc12)[C@H](CN1CC[C@H](O)C1)c1ccccc1 [Compound 33]
3. CN(C(=O)COc1ccc(NS(C)(=O)=O)c2nccnc12)[C@H](CN1CC[C@H](O)C1)c1ccccc1 [Compound 27]

8.09
8.08
6.77
